Biological target: cKit(h) (Homo sapiens)
Experiment: Kinase Profiling Assay
Format: biochemical
Details: 100 μM peptide
Protocol: Every kinase activity measurement was conducted in duplicate. In addition to determining the IC50 of the compound, the specificity of MK2 inhibitory peptides was assessed by examining activities of all 266 human kinases available for testing in the Millipore kinase profiling service (Table 1).
Please respond with reported cKit(h) % activity for every item in the list.
Numbers only, in %.

# residue.codes, scale.unit, cKit(h) % activity
rows = [
    ("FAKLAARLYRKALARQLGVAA [MMI-0300]", "%", 53),
    ("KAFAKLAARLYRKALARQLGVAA [MMI-0400]", "%", 43),
    ("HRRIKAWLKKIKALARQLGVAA (Mammalian) [MMI-0500]", "%", 45),
]

Now for another entry.
Reported cKit(h) % activity (cKit(h) (Homo sapiens)) for entry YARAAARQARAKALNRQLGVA (Mammalian) [MMI-0200] is 110

====

Please respond with reported Met(D1246H)(h) % activity for every item in the list.
Target: Met(D1246H)(h) (Homo sapiens, UniProt P08581, D1228H)
Assay: Kinase Profiling Assay
Format: biochemical
Conditions: 100 μM peptide
One number for each entry, in %.

Examples with answers:
# residue.codes, scale.unit, Met(D1246H)(h) % activity
measured = [
    ("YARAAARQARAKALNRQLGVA (Mammalian) [MMI-0200]", "%", 139),
    ("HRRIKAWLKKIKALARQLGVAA (Mammalian) [MMI-0500]", "%", 150),
]

For each listed entry, give its Met(D1246H)(h) % activity.
1. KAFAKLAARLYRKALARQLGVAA [MMI-0400]
2. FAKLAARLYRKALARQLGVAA [MMI-0300]

Response:
68
125

====

Hi there, I'd appreciate the recorded Pim-3(h) % activity for every entry that follows.
Biological target: Pim-3(h) (Homo sapiens)
Assay: Kinase Profiling Assay
Assay type: biochemical
Settings: 100 μM peptide
Method: Every kinase activity measurement was conducted in duplicate. In addition to determining the IC50 of the compound, the specificity of MK2 inhibitory peptides was assessed by examining activities of all 266 human kinases available for testing in the Millipore kinase profiling service (Table 1).
One number for each entry, in %.

Example sequences with recorded Pim-3(h) % activity:
# residue.codes, experimental.result
records = [
    ("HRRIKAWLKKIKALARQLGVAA (Mammalian) [MMI-0500]", 37),
    ("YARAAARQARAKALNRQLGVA (Mammalian) [MMI-0200]", 94),
    ("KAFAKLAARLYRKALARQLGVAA [MMI-0400]", 80),
]

Please find the next sequence below.
Pim-3(h) % activity for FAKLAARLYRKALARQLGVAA [MMI-0300] is 80

====

Target: PKG1β(h) (Homo sapiens, UniProt Q13976)
Construct: purchased Millipore (IC50 Profiler Express service)
Sequence (Q13976 1-686 isoform Q13976-2): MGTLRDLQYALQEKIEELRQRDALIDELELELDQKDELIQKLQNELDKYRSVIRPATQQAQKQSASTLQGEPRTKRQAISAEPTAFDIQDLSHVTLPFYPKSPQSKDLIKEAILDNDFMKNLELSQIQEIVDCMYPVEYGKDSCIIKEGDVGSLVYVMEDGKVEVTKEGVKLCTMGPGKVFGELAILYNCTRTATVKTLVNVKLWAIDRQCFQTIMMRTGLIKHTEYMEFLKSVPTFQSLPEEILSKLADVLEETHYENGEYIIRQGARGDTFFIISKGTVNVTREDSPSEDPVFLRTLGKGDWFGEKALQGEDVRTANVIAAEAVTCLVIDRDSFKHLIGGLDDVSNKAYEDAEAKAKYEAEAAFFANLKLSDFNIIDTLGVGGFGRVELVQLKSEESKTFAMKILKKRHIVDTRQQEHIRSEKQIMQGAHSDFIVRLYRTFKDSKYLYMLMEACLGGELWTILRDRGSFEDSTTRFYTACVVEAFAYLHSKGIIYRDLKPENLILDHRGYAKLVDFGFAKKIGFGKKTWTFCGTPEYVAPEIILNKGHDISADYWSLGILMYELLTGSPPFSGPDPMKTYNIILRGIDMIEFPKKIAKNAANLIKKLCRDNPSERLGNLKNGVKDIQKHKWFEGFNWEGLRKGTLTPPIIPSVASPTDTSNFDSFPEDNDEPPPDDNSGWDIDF
Test: Kinase Profiling Assay
Type: biochemical
Conditions: 100 μM peptide
measured.quantity: PKG1β(h) % activity (%)
One number for each entry, in %.

# residue.codes, scale.unit, PKG1β(h) % activity
records = [
    ("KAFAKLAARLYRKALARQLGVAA [MMI-0400]", "%", 53),
    ("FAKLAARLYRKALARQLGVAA [MMI-0300]", "%", 50),
    ("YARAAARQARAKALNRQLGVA (Mammalian) [MMI-0200]", "%", 57),
]

In the following, a different sequence is considered.
The sequence listed as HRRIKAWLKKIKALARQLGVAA (Mammalian) [MMI-0500] has a reported PKG1β(h) % activity of 24

====

Target: PKCι(h) (Homo sapiens, UniProt P41743)
Construct: purchased Millipore (IC50 Profiler Express service)
Sequence (P41743 1-596): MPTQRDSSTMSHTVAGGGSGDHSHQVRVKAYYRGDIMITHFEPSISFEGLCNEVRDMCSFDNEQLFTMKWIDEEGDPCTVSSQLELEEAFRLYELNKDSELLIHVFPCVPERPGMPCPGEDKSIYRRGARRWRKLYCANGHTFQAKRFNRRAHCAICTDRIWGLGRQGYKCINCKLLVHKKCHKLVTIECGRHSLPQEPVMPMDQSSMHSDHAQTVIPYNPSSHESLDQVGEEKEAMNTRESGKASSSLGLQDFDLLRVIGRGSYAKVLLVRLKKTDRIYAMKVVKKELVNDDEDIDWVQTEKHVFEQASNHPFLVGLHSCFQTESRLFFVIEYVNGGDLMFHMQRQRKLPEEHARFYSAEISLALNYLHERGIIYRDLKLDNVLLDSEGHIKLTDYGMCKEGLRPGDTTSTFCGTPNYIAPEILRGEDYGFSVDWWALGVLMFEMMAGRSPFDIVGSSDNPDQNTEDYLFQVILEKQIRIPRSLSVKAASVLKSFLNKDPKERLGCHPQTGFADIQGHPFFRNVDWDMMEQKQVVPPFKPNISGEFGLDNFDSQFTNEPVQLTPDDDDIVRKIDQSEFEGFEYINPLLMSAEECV
Assay: Kinase Profiling Assay
Format: biochemical
Details: 100 μM peptide
Method: Every kinase activity measurement was conducted in duplicate. In addition to determining the IC50 of the compound, the specificity of MK2 inhibitory peptides was assessed by examining activities of all 266 human kinases available for testing in the Millipore kinase profiling service (Table 1).
For each entry below, report its PKCι(h) % activity value.
Give bare numbers, in %.

Sample answers from the record:
# residue.codes, PKCι(h) % activity [%]
rows = [
    ("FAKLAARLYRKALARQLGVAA [MMI-0300]", 68),
    ("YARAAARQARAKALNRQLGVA (Mammalian) [MMI-0200]", 97),
    ("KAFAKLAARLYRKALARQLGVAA [MMI-0400]", 46),
]

Lab note: next sequence to report on.
Sure, the documented PKCι(h) % activity for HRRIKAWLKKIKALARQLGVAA (Mammalian) [MMI-0500] is 7

====

Target: Fyn(h) (Homo sapiens, UniProt P06241)
Sequence (P06241 whole entry): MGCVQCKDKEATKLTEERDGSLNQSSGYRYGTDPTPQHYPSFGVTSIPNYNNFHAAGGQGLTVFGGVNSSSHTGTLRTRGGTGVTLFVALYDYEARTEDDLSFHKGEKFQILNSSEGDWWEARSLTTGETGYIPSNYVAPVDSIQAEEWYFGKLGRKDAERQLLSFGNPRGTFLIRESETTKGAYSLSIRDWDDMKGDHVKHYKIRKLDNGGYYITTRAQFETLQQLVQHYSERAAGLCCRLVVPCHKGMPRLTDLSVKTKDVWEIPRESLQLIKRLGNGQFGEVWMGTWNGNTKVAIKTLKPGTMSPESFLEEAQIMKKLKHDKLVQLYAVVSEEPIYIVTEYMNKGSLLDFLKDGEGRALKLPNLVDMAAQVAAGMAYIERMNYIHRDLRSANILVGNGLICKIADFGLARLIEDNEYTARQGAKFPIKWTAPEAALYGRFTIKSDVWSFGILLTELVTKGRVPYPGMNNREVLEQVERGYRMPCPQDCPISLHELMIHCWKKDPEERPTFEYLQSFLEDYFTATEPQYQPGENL
Assay: Kinase Profiling Assay
Type: biochemical
Details: 100 μM peptide
Could you please report measured Fyn(h) % activity for the items listed next?
Give bare numbers, in %.

Solved cases below.
# residue.codes, measured.quantity, experimental.result
data = [
    ("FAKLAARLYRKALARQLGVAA [MMI-0300]", "Fyn(h) % activity", 74),
    ("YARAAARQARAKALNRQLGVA (Mammalian) [MMI-0200]", "Fyn(h) % activity", 75),
    ("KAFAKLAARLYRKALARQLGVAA [MMI-0400]", "Fyn(h) % activity", 54),
]

# ---- query sequence ----
# value of Fyn(h) % activity, Fyn(h) (Homo sapiens, UniProt P06241), item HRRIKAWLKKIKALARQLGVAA (Mammalian) [MMI-0500] = 83

====

Target: ARK5(h) (Homo sapiens, UniProt O60285)
Sequence (O60285 1-661): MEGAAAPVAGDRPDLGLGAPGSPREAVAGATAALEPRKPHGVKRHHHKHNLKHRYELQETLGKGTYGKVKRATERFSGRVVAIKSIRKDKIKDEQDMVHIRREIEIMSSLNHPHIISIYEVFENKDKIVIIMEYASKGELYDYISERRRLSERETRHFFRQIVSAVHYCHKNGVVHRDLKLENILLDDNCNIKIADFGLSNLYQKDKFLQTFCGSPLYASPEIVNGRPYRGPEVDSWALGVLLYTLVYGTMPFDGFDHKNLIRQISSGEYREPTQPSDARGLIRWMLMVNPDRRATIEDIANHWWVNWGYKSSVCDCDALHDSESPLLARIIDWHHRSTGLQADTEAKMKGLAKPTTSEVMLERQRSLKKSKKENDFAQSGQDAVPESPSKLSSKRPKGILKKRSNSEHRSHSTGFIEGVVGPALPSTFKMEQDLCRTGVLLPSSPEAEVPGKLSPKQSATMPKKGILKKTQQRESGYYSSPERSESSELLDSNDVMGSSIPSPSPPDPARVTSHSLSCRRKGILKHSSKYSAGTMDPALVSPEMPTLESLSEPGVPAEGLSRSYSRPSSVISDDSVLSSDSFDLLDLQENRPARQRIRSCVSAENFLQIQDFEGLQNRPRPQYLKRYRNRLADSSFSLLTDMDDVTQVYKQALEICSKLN
Assay: Kinase Profiling Assay
Format: biochemical
Details: 100 μM peptide
measured.quantity: ARK5(h) % activity
Please append the unit to your numeric answer.

# residue.codes, measured.quantity, experimental.result
data = [
    ("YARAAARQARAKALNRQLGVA (Mammalian) [MMI-0200]", "ARK5(h) % activity", "93%"),
    ("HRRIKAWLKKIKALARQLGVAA (Mammalian) [MMI-0500]", "ARK5(h) % activity", "20%"),
]

Go through the items and report each one's ARK5(h) % activity.
1. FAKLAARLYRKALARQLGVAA [MMI-0300]
2. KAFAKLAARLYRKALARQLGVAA [MMI-0400]

Response:
1: 78%; 2: 69%
